# Species on record: Oryctolagus cuniculus
# Test method notes: Binding affinity to angiotensin 2 receptor in albino New Zealand rabbit aorta relative to [Sar1]AT in absence of UV light
Square brackets hold non-standard residues; d marks the D form. Peptide text beside a SMILES is read from it. Phe(4-NO2) = N[C@@H](Cc1ccc([N+](=O)[O-])cc1)C(=O)O; Phe(4-N3) = [N-]=[N+]=Nc1ccc(C[C@H](N)C(=O)O)cc1; Phe(4-N2+) = N#[N+]c1ccc(C[C@H](N)C(=O)O)cc1; Sar = CNCC(=O)O

- Compound: "CNCC(=O)N[C@@H](CCCNC(=N)N)C(=O)N[C@H](C(=O)N[C@@H](Cc1ccc([N+](=O)[O-])cc1)C(=O)N[C@H](C(=O)N[C@@H](Cc1cnc[nH]1)C(=O)N1CCC[C@H]1C(=O)N[C@@H](Cc1ccccc1)C(=O)O)C(C)C)C(C)C (H-[Sar]RV[Phe(4-NO2)]VHPF-OH)"
  Readout unit: "%"
  RBA: 0
- Compound: "CNCC(=O)N[C@@H](CCCNC(=N)N)C(=O)N[C@H](C(=O)N[C@@H](Cc1ccc(N=[N+]=[N-])cc1)C(=O)N[C@H](C(=O)N[C@@H](Cc1cnc[nH]1)C(=O)N1CCC[C@H]1C(=O)N[C@@H](Cc1ccccc1)C(=O)O)C(C)C)C(C)C (H-[Sar]RV[Phe(4-N3)]VHPF-OH)"
  Readout unit: "%"
  RBA: 0.26
- Compound: "CNCC(=O)N[C@@H](CCCNC(=N)N)C(=O)N[C@H](C(=O)N[C@@H](Cc1ccc([N+](=O)[O-])cc1)C(=O)N[C@H](C(=O)N[C@@H](Cc1cnc[nH]1)C(=O)N1CCC[C@H]1C(=O)N[C@@H](Cc1ccc([N+](=O)[O-])cc1)C(=O)O)C(C)C)C(C)C (H-[Sar]RV[Phe(4-NO2)]VHP[Phe(4-NO2)]-OH)"
  Readout unit: "%"
  RBA: 0.06
- Compound: "CNCC(=O)N[C@@H](CCCNC(=N)N)C(=O)N[C@H](C(=O)N[C@@H](Cc1ccc([N+]#N)cc1)C(=O)N[C@H](C(=O)N[C@@H](Cc1cnc[nH]1)C(=O)N1CCC[C@H]1C(=O)N[C@@H](Cc1ccc([N+]#N)cc1)C(=O)O)C(C)C)C(C)C (H-[Sar]RV[Phe(4-N2+)]VHP[Phe(4-N2+)]-OH)"
  Readout unit: "%"
  RBA: 1.3

###

Each item that follows carries a reported RBA.
# Organism: Oryctolagus cuniculus
# Test method notes: Binding affinity to angiotensin 2 receptor in albino New Zealand rabbit aorta relative to [Sar1]AT in absence of UV light
Square brackets hold non-standard residues; d marks the D form. Peptide text beside a SMILES is read from it. Phe(4-N2+) = N#[N+]c1ccc(C[C@H](N)C(=O)O)cc1; Sar = CNCC(=O)O

- Molecule: "CNCC(=O)N[C@@H](CCCNC(=N)N)C(=O)N[C@H](C(=O)N[C@@H](Cc1ccc(O)cc1)C(=O)N[C@H](C(=O)N[C@@H](Cc1cnc[nH]1)C(=O)N1CCC[C@H]1C(=O)N[C@@H](Cc1ccc(N=[N+]=[N-])cc1)C(=O)O)C(C)C)C(C)C"
  RBA / %: 31
- Molecule: "CNCC(=O)N[C@@H](CCCNC(=N)N)C(=O)N[C@H](C(=O)N[C@@H](Cc1ccc([N+]#N)cc1)C(=O)N[C@H](C(=O)N[C@@H](Cc1cnc[nH]1)C(=O)N1CCC[C@H]1C(=O)N[C@@H](Cc1ccccc1)C(=O)O)C(C)C)C(C)C (H-[Sar]RV[Phe(4-N2+)]VHPF-OH)"
  RBA / %: 0.66
- Molecule: "CNCC(=O)N[C@@H](CCCNC(=N)N)C(=O)N[C@H](C(=O)N[C@@H](Cc1ccc(O)cc1)C(=O)N[C@H](C(=O)N[C@@H](Cc1cnc[nH]1)C(=O)N1CCC[C@H]1C(=O)N[C@@H](Cc1ccc([N+]#N)cc1)C(=O)O)C(C)C)C(C)C"
  RBA / %: 13

Taken from ChEMBL document CHEMBL3244362.
